Sequence of the target: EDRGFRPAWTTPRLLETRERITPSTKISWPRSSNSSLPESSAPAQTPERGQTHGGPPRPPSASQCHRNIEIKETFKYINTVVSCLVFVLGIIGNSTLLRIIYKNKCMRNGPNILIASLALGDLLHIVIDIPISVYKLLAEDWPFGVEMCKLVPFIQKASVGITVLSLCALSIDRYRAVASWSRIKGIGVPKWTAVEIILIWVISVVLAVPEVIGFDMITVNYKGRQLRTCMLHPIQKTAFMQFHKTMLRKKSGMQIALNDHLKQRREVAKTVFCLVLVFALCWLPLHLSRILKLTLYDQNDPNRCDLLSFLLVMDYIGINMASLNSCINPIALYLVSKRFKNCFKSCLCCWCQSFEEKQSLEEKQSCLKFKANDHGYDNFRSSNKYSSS
MEASUREMENT_TYPE: Ki (nM)
# output: bare number, implied unit nM

Lookup result for COc1cc(OC)nc(OC(C(=O)O)C(OC)(c2ccc(F)cc2)c2ccc(F)cc2)n1 (stereo not shown) [Compound I-60] ; measured Ki: 970

* * *

Below is a list of entries, each paired with its recorded pKi value.
# TARGET_DESC: human ETA receptor (Homo sapiens, UniProt P25101)
# Sequence (P25101 21-427): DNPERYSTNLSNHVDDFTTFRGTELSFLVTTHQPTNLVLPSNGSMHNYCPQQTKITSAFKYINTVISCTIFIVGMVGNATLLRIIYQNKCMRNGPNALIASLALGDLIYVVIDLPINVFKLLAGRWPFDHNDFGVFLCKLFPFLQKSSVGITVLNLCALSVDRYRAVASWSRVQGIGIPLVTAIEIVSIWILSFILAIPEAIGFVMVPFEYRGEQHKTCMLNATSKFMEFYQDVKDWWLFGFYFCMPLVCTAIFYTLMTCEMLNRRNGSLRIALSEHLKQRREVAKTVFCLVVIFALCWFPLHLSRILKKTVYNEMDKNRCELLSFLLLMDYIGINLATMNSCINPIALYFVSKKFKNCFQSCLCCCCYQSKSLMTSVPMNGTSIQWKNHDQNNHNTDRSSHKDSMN
Lab note — pKi values are minus log10 of concentrations in M.

CCCOC(c1ccccc1)(c1ccccc1)C(Oc1nc(OC)cc(OC)n1)C(=O)O (centres unmarked) [Compound I-12]; 7.72

Here's the next entry for you.
Entry under test: CCOC(c1ccccc1)(c1ccccc1)C(Oc1nc(OC)cc(OC)n1)C(=O)O (centres unmarked) [Compound I-4] . Its pKi was 8.15
